- target.system: METTL3 (Homo sapiens, UniProt Q86U44)
- Sequence (Q86U44 2-580 limits assumed): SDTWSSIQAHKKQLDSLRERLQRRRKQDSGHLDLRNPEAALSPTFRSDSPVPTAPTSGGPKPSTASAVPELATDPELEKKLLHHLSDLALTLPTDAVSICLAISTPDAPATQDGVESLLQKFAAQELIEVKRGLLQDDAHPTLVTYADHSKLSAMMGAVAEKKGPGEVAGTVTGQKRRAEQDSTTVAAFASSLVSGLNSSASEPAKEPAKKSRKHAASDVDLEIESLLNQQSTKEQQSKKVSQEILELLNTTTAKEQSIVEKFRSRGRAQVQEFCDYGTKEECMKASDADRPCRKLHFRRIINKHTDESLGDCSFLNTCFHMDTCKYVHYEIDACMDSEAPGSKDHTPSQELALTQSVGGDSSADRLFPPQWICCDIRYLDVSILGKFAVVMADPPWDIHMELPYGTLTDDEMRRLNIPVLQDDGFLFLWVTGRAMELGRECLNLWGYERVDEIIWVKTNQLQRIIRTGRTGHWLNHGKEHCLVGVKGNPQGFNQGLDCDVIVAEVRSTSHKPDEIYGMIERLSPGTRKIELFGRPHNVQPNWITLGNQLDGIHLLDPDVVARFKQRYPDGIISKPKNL
- Sequence (Q9HCE5 whole entry partner): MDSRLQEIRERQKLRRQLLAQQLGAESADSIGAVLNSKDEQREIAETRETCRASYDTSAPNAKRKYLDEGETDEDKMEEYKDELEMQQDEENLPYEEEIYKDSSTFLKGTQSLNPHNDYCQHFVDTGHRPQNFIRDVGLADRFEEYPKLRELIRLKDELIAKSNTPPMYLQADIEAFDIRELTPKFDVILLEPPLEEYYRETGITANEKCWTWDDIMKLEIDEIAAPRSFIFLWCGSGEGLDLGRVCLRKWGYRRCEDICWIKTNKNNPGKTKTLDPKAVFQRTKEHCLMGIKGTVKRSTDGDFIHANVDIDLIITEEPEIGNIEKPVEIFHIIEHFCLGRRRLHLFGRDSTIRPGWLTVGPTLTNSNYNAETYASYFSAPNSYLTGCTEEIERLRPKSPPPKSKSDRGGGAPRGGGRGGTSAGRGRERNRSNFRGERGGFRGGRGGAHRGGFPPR
- test.name: Immunoblotting (Western blot) degradation of METTL3 in MV4-11 cells
- Type: cell-based
- Parameters: Following treatment, total cellular proteins were extracted using RIPA buffer; endogenous in cells; host or cells: MV4-11 (MV4.11) human AML cells, ATCC
- measurement.parameters: MV4-11 cells, 1.0 µM, 24 h, immunoblotting; nd = no degradation
I'd be grateful if you could share measured % reduction in MV4-11 cells, 1.0 µM, METTL3 for these entries.
Write the number in % without appending the unit.

I'd like to know its % reduction in MV4-11 cells, 1.0 µM, METTL3. The compound in question is CC1(C)CCN(Cc2cc(F)c(N3CC(=O)NC4(CCN(c5cc(NCCCCCCCCC(=O)N6CCN(c7ccc8c(c7)CN(C7CCC(=O)NC7=O)C8=O)CC6)ncn5)CC4)C3)cc2F)CC1 (stereo not drawn) [Compound 4i]
73

I'd like to know its % reduction in MV4-11 cells, 1.0 µM, METTL3. The compound in question is CC1(C)CCN(Cc2cc(F)c(N3CC(=O)NC4(CCN(c5cc(NCCCCCCC(=O)N6CCN(c7ccc8c(c7)CN(C7CCC(=O)NC7=O)C8=O)CC6)ncn5)CC4)C3)cc2F)CC1 (stereo not drawn) [Compound 4g]
25

I'd like to know its % reduction in MV4-11 cells, 1.0 µM, METTL3. The compound in question is CC1(C)CCN(Cc2cc(F)c(N3CC(=O)NC4(CCN(c5cc(NCCCCCC(=O)N6CCN(c7ccc8c(c7)C(=O)N(C7CCC(=O)NC7=O)C8=O)CC6)ncn5)CC4)C3)cc2F)CC1 (stereo not drawn) [Compound 4b]
56

I'd like to know its % reduction in MV4-11 cells, 1.0 µM, METTL3. The compound in question is CC1(C)CCN(Cc2cc(F)c(N3CC(=O)NC4(CCN(c5cc(NCCCCCCCC(=O)N6CCN(c7ccc8c(c7)C(=O)N(C7CCC(=O)NC7=O)C8=O)CC6)ncn5)CC4)C3)cc2F)CC1 (stereo not drawn) [Compound 4d]
68

I'd like to know its % reduction in MV4-11 cells, 1.0 µM, METTL3. The compound in question is CC1(C)CCN(Cc2cc(F)c(N3CC(=O)NC4(CCN(c5cc(NCCCCCCCC(=O)N6CCN(c7ccc8c(c7)CN(C7CCC(=O)NC7=O)C8=O)CC6)ncn5)CC4)C3)cc2F)CC1 (stereo not drawn) [Compound 4h]
69

I'd like to know its % reduction in MV4-11 cells, 1.0 µM, METTL3. The compound in question is CC1(C)CCN(Cc2cc(F)c(N3CC(=O)NC4(CCN(c5cc(NCCCCCCCCC(=O)N6CCN(c7ccc8c(c7)C(=O)N(C7CCC(=O)NC7=O)C8=O)CC6)ncn5)CC4)C3)cc2F)CC1 (stereo not drawn) [Compound 4e]
52

I'd like to know its % reduction in MV4-11 cells, 1.0 µM, METTL3. The compound in question is CC1(C)CCN(Cc2cc(F)c(N3CC(=O)NC4(CCN(c5cc(NCCCCCCC(=O)N6CCN(c7ccc8c(c7)C(=O)N(C7CCC(=O)NC7=O)C8=O)CC6)ncn5)CC4)C3)cc2F)CC1 (stereo not drawn) [Compound 4c]
62

I'd like to know its % reduction in MV4-11 cells, 1.0 µM, METTL3. The compound in question is CC1(C)CCN(Cc2cc(F)c(N3CC(=O)NC4(CCN(c5cc(NCCCCCCCCCC(=O)N6CCN(c7ccc8c(c7)CN(C7CCC(=O)NC7=O)C8=O)CC6)ncn5)CC4)C3)cc2F)CC1 (stereo not drawn) [Compound 4j]
81

I'd like to know its % reduction in MV4-11 cells, 1.0 µM, METTL3. The compound in question is CC1(C)CCN(Cc2cc(F)c(N3CC(=O)NC4(CCN(c5cc(NCCCCC(=O)N6CCN(c7ccc8c(c7)C(=O)N(C7CCC(=O)NC7=O)C8=O)CC6)ncn5)CC4)C3)cc2F)CC1 (stereo not drawn) [Compound 4a]
47

---

- target.system: METTL14 (Homo sapiens, UniProt Q9HCE5)
- Construct: Following treatment, total cellular proteins were extracted using RIPA buffer; endogenous in cells; host or cells: MV4-11 (MV4.11) human AML cells, ATCC
- test.name: Immunoblotting (Western blot) degradation of METTL14 in MV4-11 cells
- Type: cell-based
- measurement.parameters: MV4-11 cells, 1.0 µM, 24 h, immunoblotting; nd = no degradation
Mark condition met only for % reduction in MV4-11 cells, 1.0 µM, METTL14 values smaller than 60%; exact matches and larger values are condition not met.

Answer whether the compound CC1(C)CCN(Cc2cc(F)c(N3CC(=O)NC4(CCN(c5cc(NCCCCCC(=O)N6CCN(c7ccc8c(c7)C(=O)N(C7CCC(=O)NC7=O)C8=O)CC6)ncn5)CC4)C3)cc2F)CC1 (centres unmarked) has % reduction in MV4-11 cells, 1.0 µM, METTL14 strictly less than 60%
condition met

Answer whether the compound CC1(C)CCN(Cc2cc(F)c(N3CC(=O)NC4(CCN(c5cc(NCCCCCCCCC(=O)N6CCN(c7ccc8c(c7)C(=O)N(C7CCC(=O)NC7=O)C8=O)CC6)ncn5)CC4)C3)cc2F)CC1 (centres unmarked) has % reduction in MV4-11 cells, 1.0 µM, METTL14 strictly less than 60%
condition met

Answer whether the compound CC1(C)CCN(Cc2cc(F)c(N3CC(=O)NC4(CCN(c5cc(NCCCCCCC(=O)N6CCN(c7ccc8c(c7)CN(C7CCC(=O)NC7=O)C8=O)CC6)ncn5)CC4)C3)cc2F)CC1 (centres unmarked) has % reduction in MV4-11 cells, 1.0 µM, METTL14 strictly less than 60%
condition met

Answer whether the compound CC1(C)CCN(Cc2cc(F)c(N3CC(=O)NC4(CCN(c5cc(NCCCCCCCC(=O)N6CCN(c7ccc8c(c7)CN(C7CCC(=O)NC7=O)C8=O)CC6)ncn5)CC4)C3)cc2F)CC1 (centres unmarked) has % reduction in MV4-11 cells, 1.0 µM, METTL14 strictly less than 60%
condition not met

Answer whether the compound CC1(C)CCN(Cc2cc(F)c(N3CC(=O)NC4(CCN(c5cc(NCCCCCCCCC(=O)N6CCN(c7ccc8c(c7)CN(C7CCC(=O)NC7=O)C8=O)CC6)ncn5)CC4)C3)cc2F)CC1 (centres unmarked) has % reduction in MV4-11 cells, 1.0 µM, METTL14 strictly less than 60%
condition not met

---

I'd be grateful if you could share measured % reduction in MV4-11 cells, 1.0 µM, METTL14 for these entries.
- target.system: METTL14 (Homo sapiens, UniProt Q9HCE5)
- Construct: Following treatment, total cellular proteins were extracted using RIPA buffer; endogenous in cells; host or cells: MV4-11 (MV4.11) human AML cells, ATCC
- test.name: Immunoblotting (Western blot) degradation of METTL14 in MV4-11 cells
- Type: cell-based
- measurement.parameters: MV4-11 cells, 1.0 µM, 24 h, immunoblotting; nd = no degradation
Write the number in % without appending the unit.

I'd like to know its % reduction in MV4-11 cells, 1.0 µM, METTL14. The compound in question is CC1(C)CCN(Cc2cc(F)c(N3CC(=O)NC4(CCN(c5cc(NCCCCCCC(=O)N6CCN(c7ccc8c(c7)C(=O)N(C7CCC(=O)NC7=O)C8=O)CC6)ncn5)CC4)C3)cc2F)CC1 (stereo not shown)
61

I'd like to know its % reduction in MV4-11 cells, 1.0 µM, METTL14. The compound in question is CC1(C)CCN(Cc2cc(F)c(N3CC(=O)NC4(CCN(c5cc(NCCCCC(=O)N6CCN(c7ccc8c(c7)C(=O)N(C7CCC(=O)NC7=O)C8=O)CC6)ncn5)CC4)C3)cc2F)CC1 (stereo not shown)
27

I'd like to know its % reduction in MV4-11 cells, 1.0 µM, METTL14. The compound in question is CC1(C)CCN(Cc2cc(F)c(N3CC(=O)NC4(CCN(c5cc(NCCCCCCCC(=O)N6CCN(c7ccc8c(c7)C(=O)N(C7CCC(=O)NC7=O)C8=O)CC6)ncn5)CC4)C3)cc2F)CC1 (stereo not shown)
67

I'd like to know its % reduction in MV4-11 cells, 1.0 µM, METTL14. The compound in question is CC1(C)CCN(Cc2cc(F)c(N3CC(=O)NC4(CCN(c5cc(NCCCCCCCCCC(=O)N6CCN(c7ccc8c(c7)CN(C7CCC(=O)NC7=O)C8=O)CC6)ncn5)CC4)C3)cc2F)CC1 (stereo not shown)
77

---

- target.system: METTL14 (Homo sapiens)
- Construct: Following treatment, total cellular proteins were extracted using RIPA buffer; endogenous in cells; host or cells: MV4-11 (MV4.11) human AML cells, ATCC
- test.name: Immunoblotting (Western blot) degradation of METTL14 in MV4-11 cells
- Type: cell-based
- measurement.parameters: MV4-11 cells, 1.0 µM, 24 h, immunoblotting
measured.attribute: % degradation in MV4-11 cells, 1.0 µM, METTL14

I'd like to know its % degradation in MV4-11 cells, 1.0 µM, METTL14. The molecule in question is CNc1cc(N2CCC3(CC2)CN(c2cc(F)c(CN4CCC(C)(C(=O)NCCCCCCCCCCNc5cccc6c5C(=O)N(C5CCC(=O)NC5=O)C6=O)CC4)cc2F)CC(=O)N3)ncn1 (stereo not shown)
21%

I'd like to know its % degradation in MV4-11 cells, 1.0 µM, METTL14. The molecule in question is CNc1cc(N2CCC3(CC2)CN(c2cc(F)c(CN4CCC(C)(C(=O)NCCCCCCNc5cccc6c5C(=O)N(C5CCC(=O)NC5=O)C6=O)CC4)cc2F)CC(=O)N3)ncn1 (stereo not shown)
21%

I'd like to know its % degradation in MV4-11 cells, 1.0 µM, METTL14. The molecule in question is CNc1cc(N2CCC3(CC2)CN(c2cc(F)c(CN4CCC(C)(C(=O)NCCCCNc5cccc6c5C(=O)N(C5CCC(=O)NC5=O)C6=O)CC4)cc2F)CC(=O)N3)ncn1 (stereo not shown)
21%

I'd like to know its % degradation in MV4-11 cells, 1.0 µM, METTL14. The molecule in question is CNc1cc(N2CCC3(CC2)CN(c2cc(F)c(CN4CCC(C)(C(=O)NCCCCCCCCNc5cccc6c5C(=O)N(C5CCC(=O)NC5=O)C6=O)CC4)cc2F)CC(=O)N3)ncn1 (stereo not shown)
24%
